Could you please report measured parasite growth, % of control (lower = inhibition) for the items listed next?
test: qHTS profiling of the MIPE4 collection as inhibitors of Plasmodium falciparum (DD2) proliferation (Rep 2) (AID 743346); conditions: P. falciparum Dd2 in erythrocytes, SYBR Green DNA, 72 h; at 28.5 µM
Give bare numbers, in %.

>  <query-smiles>
c1ccc(CCCN2CCN(CCOC(c3ccccc3)c3ccccc3)CC2)cc1

>  <display-unit>
%

>  <observed>
18.7

$$$$

Could I get parasite growth, % of control (lower = inhibition) for every one of these entries?
1. c1cc2c(cc1[C@H]1OC[C@H]3[C@H]1CO[C@H]3c1ccc3c(c1)OCO3)OCO2
2. Oc1ccc2c3c1O[C@H]1c4[nH]c5c(c4C[C@@]4(O)[C@@H](C2)N(CC2CC2)CC[C@]314)C[C@@]1(O)[C@H]2Cc3ccc(O)c4c3[C@@]1(CCN2CC1CC1)[C@H]5O4
3. CC(C)[C@H]1C(=O)N[C@H](CO)Cc2c[nH]c3cccc(c23)N1C
4. C[C@]12Cc3cn[nH]c3C[C@@H]1CC[C@@H]1[C@H]2CC[C@@]2(C)[C@H]1CC[C@]2(C)O

126
13
147
54.3

---

assay: qHTS for Inhibitors of the Functional Ribonucleoprotein Complex (vRNP) of Lymphocytic Choriomeningitis Arenaviruses (LCMV): Viability assay - alamar blue signal for LCMV Primary Screen (AID 1347085); conditions: alamar blue viability counter-screen, LCMV vRNP screen cells; series mostly up to 57.5 µM; also: nearly all actives have a fitted effect of over 80% in size; also: potency is read from the fitted curve at half-maximal effect
Inconclusive results are not listed. Active and inactive are the calls of the source. The call rests on the fitted dose curve; tested in HEK293 reporter line.
reported-property: Potency

Here are 5 compounds together with their reported answers.
>  <compound>
C[C@H](CN1CCCC1)C(=O)c1ccc(C(F)(F)F)cc1

>  <Potency>
inactive

$$$$
>  <compound>
N=c1c2c(-c3ccccc3)c(-c3ccccc3)n(Cc3ccccc3)c2ncn1C1CCC(O)CC1 (stereo not given)

>  <Potency>
544 nM (active)

$$$$
>  <compound>
Cc1cc(Nc2nc(N[C@@H](C)c3ncc(F)cn3)ncc2Cl)n[nH]1

>  <Potency>
inactive

$$$$
>  <compound>
CCNC(=O)C[C@@H]1N=C(c2ccc(Cl)cc2)c2cc(OC)ccc2-n2c(C)nnc21

>  <Potency>
1220 nM (active)

$$$$
>  <compound>
O=S(=O)(O)C(F)(F)C(F)(F)C(F)(F)C(F)(F)C(F)(F)C(F)(F)C(F)(F)C(F)(F)F

>  <Potency>
inactive

$$$$

Please give Potency, item by item, for the list that follows.
1. C[C@@H]1O[C@@H](O[C@@H]2C=C3CC[C@@H]4[C@@H](CC[C@]5(C)[C@H](c6ccc(=O)oc6)CC[C@@]45O)[C@@]3(C)CC2)[C@H](O)[C@H](O)[C@H]1O
2. CN1C2CCC1CC(OC(=O)c1cc(Cl)cc(Cl)c1)C2 (stereo not given)

1. 54.4 nM (active)
2. inactive

Each of the following entries comes with a recorded value; kindly state Potency for each.
1. NC(N)=NOCCC(N)C(=O)O (stereo not given)
2. N#CC[C@H](C1CCCC1)n1cc(-c2ncnc3[nH]ccc23)cn1
3. O=C(Nc1ccccc1-c1cn2c(CN3CCNCC3)csc2n1)c1cnc2ccccc2n1
4. CC1(C)SCCN(S(=O)(=O)c2ccc(OCC#CCO)cc2)[C@@H]1C(=O)NO
5. NCc1cc(=O)[nH]o1
6. CC(=Cc1csc(C)n1)[C@@H]1C[C@H]2O[C@]2(C)CCC[C@H](C)[C@@H](O)[C@@H](C)C(=O)C(C)(C)[C@@H](O)CC(=O)O1
7. CN(C)C(=O)c1ccc(S(=O)(=O)c2ccc(NC(=O)[C@@](C)(O)C(F)(F)F)c(Cl)c2)cc1
8. O=C(NC1CCNCC1)c1[nH]ncc1NC(=O)c1c(Cl)cccc1Cl

1: inactive; 2: inactive; 3: inactive; 4: inactive; 5: inactive; 6: inactive; 7: inactive; 8: 968 nM (active)

// provenance: PubChem BioAssay (NCATS)
